- tgt: UniProtKB P08684
- Sequence (P08684 whole entry): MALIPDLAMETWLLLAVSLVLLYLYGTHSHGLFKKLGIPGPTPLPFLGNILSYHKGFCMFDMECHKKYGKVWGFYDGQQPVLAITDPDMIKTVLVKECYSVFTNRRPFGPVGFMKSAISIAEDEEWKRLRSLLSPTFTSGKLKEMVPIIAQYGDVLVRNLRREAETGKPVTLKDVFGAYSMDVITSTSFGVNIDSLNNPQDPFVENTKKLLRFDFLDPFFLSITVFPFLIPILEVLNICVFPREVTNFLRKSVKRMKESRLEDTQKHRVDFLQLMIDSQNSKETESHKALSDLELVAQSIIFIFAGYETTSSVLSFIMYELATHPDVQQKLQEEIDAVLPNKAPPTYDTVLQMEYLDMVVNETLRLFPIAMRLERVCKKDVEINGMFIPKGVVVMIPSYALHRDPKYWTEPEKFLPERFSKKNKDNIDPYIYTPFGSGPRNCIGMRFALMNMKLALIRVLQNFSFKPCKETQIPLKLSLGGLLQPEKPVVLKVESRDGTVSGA
- condition_parameters: Potency
Collected AC50 values appear next to each entry.

Some solved cases for reference:
1) COc1ccc(-c2oc3ccccc3c(=O)c2O)cc1 | 3.98 µM (inconclusive)
2) CCCCCCC1=Cc2cc(OC)c(OC)cc2C(CC(=O)/C=C/OC)O1 (stereo not given) | 5.01 µM (inconclusive)
3) N#CC(Cl)Cl | 31.6 µM (inconclusive)
4) COC(=O)CNC(=O)C1(C)C=CC2(CCCCC2)N1C(=O)OC (stereo not given) | 31.6 µM (inconclusive)

Continue with the next compound.
Task item: # get_value(readout='AC50', item= CN1C[C@@H](CO)C=C2c3cccc4[nH]cc(c34)CC21 (stereo not given in full) )
Reply: 31.6 µM (inconclusive)

###

- tgt: Heat shock protein HSP 90-alpha (Homo sapiens, UniProt P07900)
- Type: functional, organism-based
Active and inactive are the calls of the source.
Catalogue of molecules with associated AC50

1) CCC1=NN2C(=N)/C(=C\c3cccn3-c3ccc(C)cc3C)C(=O)N=C2S1 | 8.16 µM (active)
2) Oc1ccc(Cl)cc1/C=C/c1ccc2cccc(O)c2n1 | 3.87 µM (active)
3) Cc1cccnc1Nc1nc(-c2ccccn2)cs1 | 4.65 µM (active)

Task item: Looking for the measured AC50 of Cn1c(CNc2ccc(Cl)cc2)nnc1SCc1ccccc1 , can you help?
Reply: 4.08 µM (active)

###

- tgt: Heat shock factor protein 1 (Mus musculus)
- Sequence (P38532 whole entry): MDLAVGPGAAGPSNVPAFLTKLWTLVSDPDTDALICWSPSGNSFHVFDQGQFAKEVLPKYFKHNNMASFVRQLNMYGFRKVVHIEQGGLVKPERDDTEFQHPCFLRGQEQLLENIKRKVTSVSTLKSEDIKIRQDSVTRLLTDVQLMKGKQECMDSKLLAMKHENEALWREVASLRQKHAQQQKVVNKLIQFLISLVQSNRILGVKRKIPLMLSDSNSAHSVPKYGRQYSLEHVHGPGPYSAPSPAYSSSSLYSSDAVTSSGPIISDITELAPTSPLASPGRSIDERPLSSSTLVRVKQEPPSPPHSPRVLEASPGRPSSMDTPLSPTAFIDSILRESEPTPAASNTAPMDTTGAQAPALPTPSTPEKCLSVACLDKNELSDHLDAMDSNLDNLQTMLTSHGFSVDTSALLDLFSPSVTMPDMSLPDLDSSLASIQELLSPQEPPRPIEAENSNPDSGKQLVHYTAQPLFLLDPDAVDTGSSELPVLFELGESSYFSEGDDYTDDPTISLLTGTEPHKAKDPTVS
- method_description: enhancement of HSF1-driven luciferase signal – cell-based, NIH3T3, luminescence, dose retest, confirmation (AID 435004);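 further: stress induced by proteasome inhibitor MG132 added 30 min after compound; luciferase reporter driven by HSF1 response element in NIH3T3 cells; actives raise luminescence as potentiators of the MG132 stress response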
- Format: functional
Calls of active or inactive are those of the source.
measured_attribute: EC50

Worked examples follow.
1) CC(=O)Nc1ccc(S(=O)(=O)NC2=C(N3CCN(c4ccc(F)cc4)CC3)C(=O)c3ccccc3C2=O)cc1 | > 260 µM (inactive)
2) O=S1(=O)N=C(NCC(c2ccco2)N2CCCCC2)c2ccccc21 (centres undefined) | > 260 µM (inactive)
3) C/C(=N\OC(=O)c1ccc(F)cc1)c1ccc(F)c(F)c1 | > 260 µM (inactive)
4) Cc1cccnc1Nc1nc(-c2ccccn2)cs1 | 3.33 µM (active)
5) COCCn1c(N)c(N(Cc2ccccc2)C(=O)c2ccc(C#N)cc2)c(=O)[nH]c1=O | > 260 µM (inactive)
6) O=C(N/N=C(\c1ccccc1)c1cccnc1)c1cccc(F)c1 | 21.5 µM (active)
7) Cc1ccc(/C=N/N(Cc2ccccc2)c2ccccc2)o1 | > 260 µM (inactive)
8) S=C(NCc1ccco1)N1CCN(c2ccccc2Cl)CC1 | > 260 µM (inactive)
9) O=C(COc1ccc(Cl)cc1)Nc1ncc([N+](=O)[O-])s1 | 0.382 µM (active)
10) Cc1ccc(-c2ccc(O)nn2)cc1 | > 260 µM (inactive)

Task item: API: value(readout=EC50, system=Heat shock factor protein 1 (Mus musculus)) for record Cc1ccc(C(c2nnnn2C2CCCC2)N2CCc3ccccc32)cc1 (centres undefined)
Reply: > 260 µM (inactive)

Task item: Form field: EC50 recorded for O=C1CC(c2ccoc2)CC(Nc2ccccc2)=C1C(=O)Nc1ccccc1 (centres undefined) with Heat shock factor protein 1 (Mus musculus) (enter value)
Reply: > 260 µM (inactive)

Task item: Short answer please: EC50, Heat shock factor protein 1 (Mus musculus), entry Cc1cccc(C(C#N)c2ccc(Cl)nn2)c1 (centres undefined)
Reply: > 260 µM (inactive)

Task item: Return EC50 measured with Heat shock factor protein 1 (Mus musculus) given this compound: O=C(C[S+]([O-])c1ccc(C(F)(F)F)cc1[N+](=O)[O-])Oc1ccccc1 (centres undefined)
Reply: 22.7 µM (active)
